Give T/C for every item shown.
test system: P388; test: Percentage change in median survival time of P388 (leukemia) inoculated female mice following 25 mg/kg p.o.; settings: route oral
Give just the number in %; leave the unit off.

query: Quick one: T/C for CC(=O)n1cc(F)c(=O)n(C(=O)c2ccccc2)c1=O ?
result: 108

query: Name the reported T/C value associated with the compound O=c1[nH]cc(F)c(=O)[nH]1
result: 135

query: Given the entry CC(=O)n1cc(F)c(=O)n(C(=O)c2ccccc2C)c1=O , report its measured T/C.
result: 121

query: Quick check: T/C of Cc1ccccc1C(=O)n1c(=O)c(F)cn(C(=O)C(C)C)c1=O ?
result: 110

query: Would you mind telling me what T/C value was observed for CCOC(=O)n1cc(F)c(=O)n(C(C)=O)c1=O ?
result: 103

query: For CCCCCCOC(=O)n1cc(F)c(=O)n(C(=O)c2ccccc2C)c1=O , what is its reported T/C?
result: 100

query: Dear colleague, I am looking for the recorded T/C of the following compound: CCC(=O)n1cc(F)c(=O)n(C(=O)c2ccccc2)c1=O
result: 110

query: # T/C lookup, item O=C(Oc1ccccc1)n1c(=O)[nH]cc(F)c1=O
result: 112

query: Please look up its T/C: CCOC(=O)n1cc(F)c(=O)n(C(=O)c2ccccc2C)c1=O
result: 112

query: Please give the measured T/C for this compound: CC(=O)n1c(=O)c(F)cn(C(=O)c2ccccc2C)c1=O
result: 97

query: Looking for the measured T/C of CCOC(=O)n1cc(F)c(=O)n(C(=O)CC)c1=O , can you help?
result: 105

query: What value of T/C has been reported for the following compound? O=c1[nH]c(=O)n(C2CCCO2)cc1F (configuration not stated)
result: 115

----------
Consider the following compounds; for each one, report its T/C.
tested on: Mus musculus; assay: Antitumor activity against P-388 Leukemia in female BDF1 mice expressed as percent T/C at dose 50 mg/kg; type: functional
# number only, unit % dropped from output

query: Find the recorded T/C belonging to COC(=O)n1cc(F)c(=O)n(C(=O)c2ccccc2C)c1=O and report it.
result: 112

query: Item CCOC(=O)n1cc(F)c(=O)n(C(C)=O)c1=O has what recorded T/C?
result: 115

query: Suppose we examine the compound Cc1ccccc1C(=O)n1c(=O)c(F)cn(C(=O)O[C@H]2CCC3(C)C(=CCC4[C@@H]3CCC3(C)[C@@H](C(C)CCCC(C)C)CC[C@@H]43)C2)c1=O (stereo not given in full) ; what T/C value has been reported?
result: 98

query: Consider the compound shown here: O=C(OCc1ccccc1)n1c(=O)[nH]cc(F)c1=O What is its recorded T/C?
result: 101

query: Name the reported T/C value associated with the compound O=C(Oc1ccccc1)n1cc(F)c(=O)n(C(=O)c2ccccc2)c1=O
result: 112

----------
test system: P388; assay: Percentage change in median survival time of P388 (leukemia) inoculated female mice following 25 mg/kg p.o.; conditions: route oral
readout.kind: T/C (%)
Just the number in %, nothing appended.

query: Request the reported T/C associated with Cc1ccccc1C(=O)n1c(=O)c(F)cn(C(=O)Oc2ccccc2)c1=O
result: 100

query: Entry CCCCCCC(=O)n1c(=O)c(F)cn(C(=O)OCC)c1=O has what T/C?
result: 110

query: Consider the molecule shown here: O=C(Oc1ccccc1)n1cc(F)c(=O)n(C(=O)c2ccccc2)c1=O What is its recorded T/C?
result: 99

query: Entry CCC(=O)n1cc(F)c(=O)n(C(=O)c2ccccc2C)c1=O has what T/C?
result: 103

query: Looking for the measured T/C of COC(=O)n1cc(F)c(=O)n(C(=O)c2ccccc2C)c1=O , can you help?
result: 101

query: For the molecule shown here, CC(=O)n1cc(F)c(=O)n(C(C)=O)c1=O , give the reported T/C.
result: 112

query: Which T/C reading was recorded for the molecule CCOC(=O)n1cc(F)c(=O)n(C(=O)c2ccccc2)c1=O ?
result: 103
